test system: Escherichia coli TOP10; assay: shrunken log2 fold change of peptide-encoding DNA abundance (4.5 h post-induction vs induction); higher = less antimicrobial activity (less host growth inhibition); conditions: time post-induction: 4.5 h; library: site-saturation at positions 5, 18, 19, 20;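 note: peptides expressed intracellularly from a pBAD plasmid library in pooled LB shake-flask culture, induced with 0.3% L-arabinose, DNA abundance read by NGS, three biological replicates, DESeq2 with apeglm shrinkage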
Listed here: items and their measured shrunken log2 fold change.
// response body must contain only the number

- RRIRFRPPRLPRPRPRPVMEPRP: 0.352

RRIRARPPRLPRPRPRPEPIPRP has a reported shrunken log2 fold change of 0.716

RRIRCRPPRLPRPRPRPLQSPRP has a reported shrunken log2 fold change of 0.113

RRIRLRPPRLPRPRPRPQQTPRP has a reported shrunken log2 fold change of 0.168

RRIRFRPPRLPRPRPRPNENPRP has a reported shrunken log2 fold change of 0.00257

RRIRVRPPRLPRPRPRPPMEPRP has a reported shrunken log2 fold change of -0.172

RRIRLRPPRLPRPRPRPCLIPRP has a reported shrunken log2 fold change of -0.0321
